System: RPMI-8226
procedure text: Growth inhibition of human RPMI8226 cells at 10 uM incubated for 48 hrs by sulforhodamine B assay relative to control
Type: functional
assay conditions: RPMI-8226, 48 h, read-out: GI
For each entry below, report its inhibition of growth at 10 µM value.
Give just the numeric value; % need not be written.

Data request: # get_value(readout='inhibition of growth at 10 µM', item= `COc1cc(-c2nc(N)n(CC(=O)Nc3ccc(/C(C)=N\O)cc3)n2)cc(OC)c1OC` )
Data returned: 5.69

Data request: Request: `COc1ccc(-c2nc3sc(-c4ccc(Cl)cc4)cn3n2)cc1`
Data returned: 55.1

Data request: Request: `CC(=O)c1ccc(NC(=O)Cn2nc(-c3ccc(Cl)cc3)nc2N)cc1`
Data returned: 3.17

Data request: Request: `Clc1ccc(-c2cn3nc(-c4ccccc4)nc3s2)cc1`
Data returned: 10

Data request: Request: `C/C(=N/O)c1ccc(NC(=O)Cn2nc(C(F)(F)F)nc2N)cc1`
Data returned: 4.65

Data request: Request: `C/C(=N\O)c1ccc(NC(=O)Cn2nc(-c3ccc(Cl)cc3)nc2N)cc1`
Data returned: 6.42

Data request: Request: `c1ccc(-c2nc3sc(-c4ccccc4)cn3n2)cc1`
Data returned: 14

Data request: Request: `COc1cc(-c2nc3sc(-c4ccccc4)cn3n2)cc(OC)c1OC`
Data returned: 42

Data request: Request: `COc1ccc(-c2nc3sc(-c4ccccc4)cn3n2)cc1`
Data returned: 21
